FYI, the data here is from ChEMBL document CHEMBL4014304.

# Tgt: Integrin alpha-V/beta-5 (Homo sapiens, UniProt P06756+P18084)
# Sequence (P06756 31-889 limits assumed): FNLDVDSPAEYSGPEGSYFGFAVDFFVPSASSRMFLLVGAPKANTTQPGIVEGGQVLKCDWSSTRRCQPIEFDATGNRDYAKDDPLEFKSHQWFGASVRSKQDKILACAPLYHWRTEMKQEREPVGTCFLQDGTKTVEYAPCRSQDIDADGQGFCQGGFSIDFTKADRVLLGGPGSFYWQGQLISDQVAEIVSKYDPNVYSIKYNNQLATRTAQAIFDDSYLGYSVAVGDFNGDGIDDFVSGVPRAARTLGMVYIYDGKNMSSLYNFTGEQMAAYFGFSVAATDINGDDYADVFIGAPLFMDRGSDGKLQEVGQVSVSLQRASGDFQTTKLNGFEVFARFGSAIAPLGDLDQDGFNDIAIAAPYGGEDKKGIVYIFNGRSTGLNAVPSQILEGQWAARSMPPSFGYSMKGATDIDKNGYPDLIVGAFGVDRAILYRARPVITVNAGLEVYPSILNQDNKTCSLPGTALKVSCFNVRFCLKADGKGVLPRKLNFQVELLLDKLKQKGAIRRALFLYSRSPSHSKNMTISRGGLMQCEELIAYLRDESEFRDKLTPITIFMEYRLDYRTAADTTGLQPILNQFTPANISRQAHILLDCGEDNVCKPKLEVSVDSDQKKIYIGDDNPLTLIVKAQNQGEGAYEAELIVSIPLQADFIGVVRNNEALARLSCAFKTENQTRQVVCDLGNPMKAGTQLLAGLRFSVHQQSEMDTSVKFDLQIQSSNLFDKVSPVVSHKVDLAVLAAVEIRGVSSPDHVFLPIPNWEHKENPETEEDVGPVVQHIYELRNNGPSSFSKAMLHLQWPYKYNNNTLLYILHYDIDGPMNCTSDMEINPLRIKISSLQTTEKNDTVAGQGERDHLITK
# Sequence (P06756 891-1048 limits assumed): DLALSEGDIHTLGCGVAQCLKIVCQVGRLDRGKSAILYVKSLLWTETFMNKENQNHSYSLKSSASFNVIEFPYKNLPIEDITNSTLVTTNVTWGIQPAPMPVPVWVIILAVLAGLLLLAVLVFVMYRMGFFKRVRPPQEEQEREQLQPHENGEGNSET
# Sequence (P18084 24-799 limits assumed): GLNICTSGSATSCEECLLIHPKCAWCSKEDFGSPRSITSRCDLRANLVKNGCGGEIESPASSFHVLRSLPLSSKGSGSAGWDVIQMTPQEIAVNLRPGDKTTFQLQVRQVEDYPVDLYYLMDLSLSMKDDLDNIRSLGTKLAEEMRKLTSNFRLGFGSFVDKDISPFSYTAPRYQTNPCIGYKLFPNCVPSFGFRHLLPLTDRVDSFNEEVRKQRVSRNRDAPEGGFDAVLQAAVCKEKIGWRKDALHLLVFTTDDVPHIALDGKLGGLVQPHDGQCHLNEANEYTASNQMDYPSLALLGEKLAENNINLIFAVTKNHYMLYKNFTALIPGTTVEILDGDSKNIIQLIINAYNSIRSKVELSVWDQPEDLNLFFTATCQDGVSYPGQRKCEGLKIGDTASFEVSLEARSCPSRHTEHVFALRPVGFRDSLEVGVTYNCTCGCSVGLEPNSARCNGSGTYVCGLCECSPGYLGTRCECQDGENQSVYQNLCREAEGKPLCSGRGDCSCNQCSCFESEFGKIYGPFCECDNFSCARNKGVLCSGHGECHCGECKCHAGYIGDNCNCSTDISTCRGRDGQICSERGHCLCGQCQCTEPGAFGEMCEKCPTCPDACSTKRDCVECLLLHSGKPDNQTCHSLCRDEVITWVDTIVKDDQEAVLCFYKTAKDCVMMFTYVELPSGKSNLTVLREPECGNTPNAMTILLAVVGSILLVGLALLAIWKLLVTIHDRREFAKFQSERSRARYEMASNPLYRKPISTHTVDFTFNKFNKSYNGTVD
# Assay Procedure: Antagonist activity at integrin alphaVbeta5 (unknown origin) expressed in HT-29 cells assessed as reduction in cell adhesion to vitronectin after 2 hrs by MTT assay
# Format: cell-based
Parameter Measured: IC50 (mM)

Solved cases (2 shown):
1) H-RGDRGD-OH	0.546
2) H-GGGGGGGRGDLPETGGS-OH	2.95

[I] H-GRGDRGDRGDLPETGGS-OH
[II] H-GGGGRGDRGDLPETGGS-OH
Request: Field: lower recorded IC50 (choose I or II ) Lab log: write the label of the selected item as the result.
Response: I
